# drug sensitivity score annotations
system: MDA-MB-453; assay: drug sensitivity score (DSS), single agent (DSS (weighted AUC score)); higher = more sensitive (stronger viability decrease); extreme values may be limits of the assay; settings: BLU9931 0 nM; 72 h
measure: drug sensitivity score

CO[C@H]1C(=O)[C@]2(C)[C@@H](OC)C[C@H]3OC[C@@]3(OC(C)=O)[C@H]2[C@H](OC(=O)c2ccccc2)[C@]2(O)C[C@H](OC(=O)[C@H](O)[C@@H](NC(=O)OC(C)(C)C)c3ccccc3)C(C)=C1C2(C)C; 14.6
Clc1ccccc1C(c1ccccc1)(c1ccccc1)n1cccn1; 1.6
COc1ccc(S(=O)(=O)Nc2cccnc2Nc2ccc(O)cc2)cc1; 7.4
CC#CC(=O)N1CCC[C@H]1c1nc(-c2ccc(C(=O)Nc3ccccn3)cc2)c2c(N)nccn12; 4.2
CCCCNc1ncc(C(=O)NCc2ccc(-n3ccnc3)cc2)c(NC2CCC(O)CC2)n1 (stereo not given); 0
CN1CCc2c(c3ccccc3n2Cc2ccc(C(=O)NO)cc2)C1; 4.1
N#Cc1ccnc(N2C(=O)CC[C@H]2C(=O)N(c2cncc(F)c2)[C@H](C(=O)NC2CC(F)(F)C2)c2ccccc2Cl)c1; 0
C[C@@H]1C=C2C(=O)O[C@@H]3CC[C@H](C1)[C@]23O; 7.4
O=C(/C=C/c1cccnc1)NCCCCC1CCN(C(=O)c2ccccc2)CC1; 30.5
CCn1c(-c2nonc2N)nc2c(C#CC(C)(C)O)ncc(OC[C@H]3CCCNC3)c21; 13
O=C(c1cc(Cc2n[nH]c(=O)c3ccccc23)ccc1F)N1CCN(C(=O)C2CC2)CC1; 1.7
CC(C)Cn1cnc2c(N)nc3ccccc3c21; 0
C[C@H]1CNCCCN1S(=O)(=O)c1cccc2cncc(F)c12; 0
CC[C@@H](C(=O)[C@@H](C)[C@@H](O)[C@H](C)[C@@H]1O[C@@H]([C@@H](CC)C(=O)O)CC[C@@H]1C)[C@H]1O[C@]2(C=C[C@@H](O)[C@]3(CC[C@@](C)([C@H]4CC[C@](O)(CC)[C@H](C)O4)O3)O2)[C@H](C)C[C@@H]1C; 6.8
CCn1c(-c2nonc2N)nc2cnc(Oc3cccc(NC(=O)c4ccc(OCCN5CCOCC5)cc4)c3)cc21; 3.9

----------
Each record here notes measured drug sensitivity score.
test system: MDA-MB-453; assay: drug sensitivity score (DSS), single agent (DSS (weighted AUC score)); higher = more sensitive (stronger viability decrease); extreme values may be limits of the assay; details: BLU9931 0 nM; 72 h
measure: drug sensitivity score

CN[C@@H]1C[C@H]2O[C@@](C)([C@@H]1OC)n1c3ccccc3c3c4c(c5c6ccccc6n2c5c31)C(=O)N[C@H]4O [UCN-01]; 18.2
O=C(O)CCCCC(CCSCc1ccccc1)SCc1ccccc1 (centres undefined) [CPI-613]; 0
CCS(=O)(=O)Nc1ccc(Oc2ccc(F)cc2F)c(-c2cn(C)c(=O)c3[nH]ccc23)c1 [Mivebresib]; 29.9
NC[C@@](O)(c1ccc(Cl)cc1)c1ccc(-c2cn[nH]c2)cc1; 1.3

----------
tested on: MDA-MB-453; experiment: drug sensitivity score (DSS), in combination with BLU9931 (DSS (weighted AUC score)); higher = more sensitive (stronger viability decrease); extreme values may be limits of the assay; conditions: BLU9931 100 nM; 72 h
Quick rule: drug sensitivity score of at least 0.1 means Fulfilled, below that means Not fulfilled.

C[C@@H]1C=C2C(=O)O[C@@H]3CC[C@H](C1)[C@]23O; Fulfilled
COc1cc2c(cc1-c1c(C)noc1C)ncc1[nH]c(=O)n([C@H](C)c3ccccn3)c12; Fulfilled
O=C(NC[C@H](O)CN1CCc2ccccc2C1)c1cc(NC2COC2)ncn1; Fulfilled
Nc1ncnc2c1nc(N)n2[C@@H]1O[C@H](CO)[C@@H](O)[C@H]1O; Fulfilled
C/C(=C\c1csc(C)n1)[C@@H]1C[C@@H]2O[C@]2(C)CCC[C@H](C)[C@H](O)[C@@H](C)C(=O)C(C)(C)[C@@H](O)CC(=O)N1 [Ixabepilone]; Fulfilled
COc1cc(Nc2ncc(F)c(Nc3ccc4c(n3)N(COP(=O)(O)O)C(=O)C(C)(C)O4)n2)cc(OC)c1OC; Not fulfilled
O[C@H](C[C@H]1c2c(F)cccc2-c2cncn21)[C@H]1CC[C@H](O)CC1; Not fulfilled

----------
test system: MDA-MB-453; experiment: drug sensitivity score (DSS), in combination with BLU9931 (DSS (weighted AUC score)); higher = more sensitive (stronger viability decrease); extreme values may be limits of the assay; details: BLU9931 100 nM; 72 h
Criterion: drug sensitivity score meeting or surpassing 4. Met: MET. Not met: NOT MET.

O=C(Nc1ccncc1)C(=O)c1cn(Cc2ccc(Cl)cc2)c2ccccc12; MET
Nc1cc(F)ccc1NC(=O)c1ccc(CNC(=O)/C=C/c2cccnc2)cc1; MET
C[C@H]1O[C@@H](O[C@H]2[C@@H](O)C[C@H](O[C@H]3[C@@H](O)C[C@H](O[C@H]4CC[C@@]5(C)[C@H](CC[C@@H]6[C@@H]5C[C@@H](O)[C@]5(C)[C@@H](C7=CC(=O)OC7)CC[C@]65O)C4)O[C@@H]3C)O[C@@H]2C)C[C@H](O)[C@@H]1O; MET
CN1CCN(C(=O)c2ccc3cc(CCNc4ncnc5ccc(C#N)cc45)ccc3c2)CC1; NOT MET
O=C(Nc1cccnc1)N1CCC(Cc2cccc(Oc3ccc(C(F)(F)F)cn3)c2)CC1; NOT MET
CC/C(=C(\c1ccc(O)cc1)c1ccc(OCCN(C)C)cc1)c1ccccc1 [4-hydroxytamoxifen]; MET

----------
test system: MDA-MB-453; assay: drug sensitivity score (DSS), single agent (DSS (weighted AUC score)); higher = more sensitive (stronger viability decrease); extreme values may be limits of the assay; conditions: BLU9931 0 nM; 72 h
Values of drug sensitivity score greater than or equal to 0.7 map to True; values below map to False.

COc1cc(Nc2ncc(F)c(Nc3ccc4c(n3)N(COP(=O)(O)O)C(=O)C(C)(C)O4)n2)cc(OC)c1OC [Fostamatinib]; False
CC(=O)N(O)CCCCCNC(=O)CCC(=O)N(O)CCCCCNC(=O)CCC(=O)N(O)CCCCCN [Deferoxamine]; True
CC1(C)CC[C@]2(NC(=O)C(C)(F)F)CC[C@]3(C)[C@H](C(=O)C=C4[C@@]5(C)C=C(C#N)C(=O)C(C)(C)[C@@H]5CC[C@]43C)[C@@H]2C1 [Omaveloxolone]; True
CC#CC(=O)N1CC[C@@H](n2c(=O)n(-c3ccc(Oc4ccccc4)cc3)c3c(N)ncnc32)C1 [Tirabrutinib]; True
Cn1nccc1Nc1nccc(-c2ccn([C@H](CO)c3ccc(Cl)c(F)c3)c(=O)c2)n1 [Ravoxertinib]; True
COCC1(CO)C(=O)C2CCN1CC2 (configuration not stated) [APR-246]; False

----------
Listed below: drug sensitivity score values for each entry.
test system: MDA-MB-453; assay: drug sensitivity score (DSS), in combination with BLU9931 (DSS (weighted AUC score)); higher = more sensitive (stronger viability decrease); extreme values may be limits of the assay; details: BLU9931 100 nM; 72 h
measure: drug sensitivity score

C[C@H]1CN(C2COC2)CCN1c1ccc(Nc2cc(-c3ccnc(N4CCn5c(cc6c5CC(C)(C)C6)C4=O)c3CO)cn(C)c2=O)nc1; 0
CN(C)CCOc1ccc(/C(=C(/CCCl)c2ccccc2)c2ccccc2)cc1; 4.1
CONC(=O)c1ccccc1Nc1cc(Nc2cc(C)nn2C(C)C)ncc1Cl; 0.5
Clc1ccccc1C(c1ccccc1)(c1ccccc1)n1cccn1; 0.6

----------
Recorded drug sensitivity score, one value per entry.
tested on: MDA-MB-453; experiment: drug sensitivity score (DSS), in combination with BLU9931 (DSS (weighted AUC score)); higher = more sensitive (stronger viability decrease); extreme values may be limits of the assay; settings: BLU9931 100 nM; 72 h
measure: drug sensitivity score

CCCc1cc(C)[nH]c(=O)c1CNC(=O)c1cc(-c2ccnc(N3CCN(C)CC3)c2)cc2c1cnn2C(C)C [GSK343]; 0
NC(=O)/C(=C/n1cnc(-c2cc(C(F)(F)F)cc(C(F)(F)F)c2)n1)c1cncnc1 [Eltanexor]; 14.2
CC(C)C[C@@H](C(=O)N[C@H](C(=O)OC1CCCC1)c1ccccc1)[C@H](O)C(=O)NO [Tosedostat]; 10.1
CNc1nc(Nc2cn(C(C)(C)C#N)nc2C)ncc1C(F)(F)F [GNE-0877]; 0
CCCN(CCC)C(=O)C1=Cc2ccc(-c3ccc(C(=O)N4CCCC4)cc3)cc2N=C(N)C1 [Motolimod]; 0
CC[C@]1(O)C[C@@H]2CN(CCc3c([nH]c4ccccc34)[C@@](C(=O)OC)(c3cc4c(cc3OC)N(C)[C@H]3[C@@](O)(C(=O)OC)[C@H](OC(C)=O)[C@]5(CC)C=CCN6CC[C@]43[C@@H]65)C2)C1 [Vinblastine]; 8.4
CC1(C)CCC(c2ccc(Cl)cc2)=C(CN2CCN(c3ccc(C(=O)NS(=O)(=O)c4ccc(N[C@H](CCN5CCOCC5)CSc5ccccc5)c(S(=O)(=O)C(F)(F)F)c4)cc3)CC2)C1 [Navitoclax]; 2.4
CC[C@@H]1C(=O)N(C)c2cnc(Nc3ccc(C(=O)N[C@H]4CC[C@H](N5CCN(CC6CC6)CC5)CC4)cc3OC)nc2N1C(C)C [Volasertib]; 7.8
C[C@H]1C[C@@H]2[C@H]([C@@H](O)C[C@@]3(C)[C@H]2CC[C@]3(O)C(=O)CO)[C@@]2(C)C=CC(=O)C=C12 [Methylprednisolone]; 0
CO[C@H]1C[C@@H]2CC[C@@H](C)[C@@](O)(O2)C(=O)C(=O)N2CCCC[C@H]2C(=O)O[C@H]([C@H](C)C[C@@H]2CC[C@@H](O)[C@H](OC)C2)CC(=O)[C@H](C)/C=C(\C)[C@@H](O)[C@@H](OC)C(=O)[C@H](C)C[C@H](C)/C=C/C=C/C=C/1C [Sirolimus]; 10.5
CCN(c1cc(-c2ccc(CN3CCOCC3)cc2)cc(C(=O)NCc2c(C)cc(C)[nH]c2=O)c1C)C1CCOCC1 [Tazemetostat]; 0
Cc1sc2c(c1C)C(c1ccc(Cl)cc1)=N[C@@H](CC(=O)Nc1ccc(O)cc1)c1nnc(C)n1-2 [Birabresib]; 15.2
Cc1nc(=O)c2cc(CN(C)c3ccc(C(=O)N[C@@H](CCC(=O)O)C(=O)O)s3)ccc2[nH]1 [Raltitrexed]; 3.2
CO[C@H]1CC[C@H](N2C(=O)CNc3ncc(-c4ccc(C(C)(C)O)nc4)nc32)CC1 [CC-223]; 6
Nc1ncn([C@H]2C[C@H](O)[C@@H](CO)O2)c(=O)n1 [Decitabine]; 0
O=C1Cc2cc(C(=O)NC3C[C@H]4CC[C@@H](C3)N4S(=O)(=O)CC3CCN(CCCC(F)(F)F)CC3)c(Cl)cc2N1 (some centres undefined); 0
CO[C@@H]1[C@H](N(C)C(=O)c2ccccc2)C[C@H]2O[C@]1(C)n1c3ccccc3c3c4c(c5c6ccccc6n2c5c31)C(=O)NC4 [Midostaurin]; 4.8
COc1cccc(-c2ccc(NC(=O)C3=C(C(=O)O)CCC3)c(F)c2)c1 [Vidofludimus]; 0
NC(=O)c1cccc(-c2cccc(OC(=O)NC3CCCCC3)c2)c1 [URB597]; 0
Cc1cc2c(F)c(Oc3ncnn4cc(OC[C@@H](C)O)c(C)c34)ccc2[nH]1 [Brivanib]; 0
Cc1ccc(-c2cc(C(F)(F)F)nn2-c2ccc(S(N)(=O)=O)cc2)cc1 [Celecoxib]; 0
O=C(O)c1ccc(O)c2ncccc12 [IOX-1]; 3.6
CN(C)Cc1ccc(S(=O)(=O)n2ccc(/C=C/C(=O)NO)c2)cc1 [Resminostat]; 16.2
COc1cc(C)[nH]c(=O)c1CNC(=O)c1c(C)n([C@H](C)C2CCOCC2)c2ccccc12 [CPI-360]; 0
O=C(NOC[C@H](O)CO)c1ccc(F)c(F)c1Nc1ccc(I)cc1F; 1.1
C[C@H]1CNCCCN1S(=O)(=O)c1cccc2cncc(F)c12 [Ripasudil]; 0.1
C=CC(=O)N1CCC[C@@H](n2nc(-c3ccc(Oc4ccccc4)cc3)c3c(N)ncnc32)C1 [Ibrutinib]; 15.8
N.N.[Cl][Pt][Cl] [Cisplatin]; 6.5
COc1cc2ncnc(Nc3ccc(F)c(Cl)c3)c2cc1NC(=O)/C=C/CN1CCCCC1 [Dacomitinib]; 8.6
